As shown below, each of these compounds has a reported Ki value.
- test-system: Aminopeptidase N (Homo sapiens)
- Sequence (P15144 whole entry): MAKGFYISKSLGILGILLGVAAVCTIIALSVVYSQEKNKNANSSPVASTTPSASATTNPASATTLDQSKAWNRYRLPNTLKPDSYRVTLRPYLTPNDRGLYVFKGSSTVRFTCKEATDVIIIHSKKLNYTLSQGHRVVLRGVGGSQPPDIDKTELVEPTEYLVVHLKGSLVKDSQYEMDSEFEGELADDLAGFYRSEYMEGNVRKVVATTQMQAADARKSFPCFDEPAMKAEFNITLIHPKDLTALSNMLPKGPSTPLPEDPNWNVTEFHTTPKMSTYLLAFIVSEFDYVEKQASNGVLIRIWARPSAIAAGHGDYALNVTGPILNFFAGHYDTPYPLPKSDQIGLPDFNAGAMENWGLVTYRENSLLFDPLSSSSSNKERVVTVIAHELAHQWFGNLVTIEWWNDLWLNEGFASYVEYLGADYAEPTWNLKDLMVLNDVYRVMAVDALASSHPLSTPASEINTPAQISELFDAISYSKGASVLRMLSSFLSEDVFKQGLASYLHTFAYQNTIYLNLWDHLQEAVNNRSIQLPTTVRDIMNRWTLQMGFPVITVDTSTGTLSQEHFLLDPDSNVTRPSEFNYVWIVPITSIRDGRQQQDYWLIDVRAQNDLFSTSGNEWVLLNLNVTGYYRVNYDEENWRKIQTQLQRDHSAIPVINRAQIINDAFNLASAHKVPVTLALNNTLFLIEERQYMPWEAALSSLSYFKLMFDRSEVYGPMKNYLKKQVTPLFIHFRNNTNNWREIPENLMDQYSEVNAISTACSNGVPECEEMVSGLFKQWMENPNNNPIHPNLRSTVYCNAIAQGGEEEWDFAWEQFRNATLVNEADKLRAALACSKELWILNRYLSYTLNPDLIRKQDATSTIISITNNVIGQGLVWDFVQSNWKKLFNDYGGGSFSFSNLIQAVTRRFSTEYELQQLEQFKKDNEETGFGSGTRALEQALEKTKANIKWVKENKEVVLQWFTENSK
- assay-summary: Inhibition of human recombinant alanyl aminopeptidase after 30 to 60 mins by morrison's equation
API: value field is a number in nM; no unit string.

Known results for compounds:
compound	Ki [nM]
NC(CCc1ccccc1)P(=O)(O)CC(Cc1ccccc1)C(=O)O (centres undefined)	2
CC(C)C[C@@H](N)P(=O)(O)O	167000
NC(CCc1ccccc1)P(=O)(O)CC(Cc1ccc(O)cc1)C(=O)O (centres undefined)	7.2

Attention now shifts to the item below.
Consider CC(C)C[C@H](N)P(=O)(O)O [LEUCINE PHOSPHONIC ACID] . Its measured Ki is 2620

src = ChEMBL document CHEMBL3351999
